Entries annotated with measured fold change (FC)
- MEASUREMENT_TARGET: ATP-dependent translocase ABCB1 (Homo sapiens)
- METHOD_DESCRIPTION: Inhibition of ABCB1 in human SW620/AD300 cells assessed as potentiation of paclitaxel-induced cytotoxicity by measuring fold reduction in paclitaxel IC50 at 2 uM after 72 hrs by MTT assay relative to paclitaxel alone
- Type: cell-based
// return just the number, without any unit appended

Some entries whose results are on file:
{"STRUCTURE_NOTATION": "N#Cc1c(Nc2cccc(C(F)(F)F)c2)nc(SCC(=O)NC(=O)Nc2ccccn2)nc1-c1ccc(F)c(F)c1", "fold change (FC)": 3.11}
{"STRUCTURE_NOTATION": "COc1cc(-c2nc(SCC(=O)NC(=O)Nc3ccccn3)nc(Nc3ccc(C(F)(F)F)cc3)c2C#N)cc(OC)c1OC", "fold change (FC)": 3.56}
{"STRUCTURE_NOTATION": "Cc1ccc(Nc2nc(SCC(=O)NC(=O)Nc3ccccn3)nc(-c3ccc(C(C)C)cc3)c2C#N)cc1", "fold change (FC)": 1.64}

q: What does the record list as fold change (FC) for Cc1ccccc1Nc1nc(SCc2cn(Cc3ccc(Cl)cc3)nn2)nc(-c2ccccc2)c1C#N ?
a: 116

q: What does the record list as fold change (FC) for COc1cc(-c2nc(SCC(=O)NC(=O)Nc3ccccc3)nc(Nc3ccc(F)cc3)c2C#N)cc(OC)c1OC ?
a: 25.37

---

- MEASUREMENT_TARGET: ATP-dependent translocase ABCB1 (Homo sapiens, UniProt P08183)
- Sequence (P08183 whole entry): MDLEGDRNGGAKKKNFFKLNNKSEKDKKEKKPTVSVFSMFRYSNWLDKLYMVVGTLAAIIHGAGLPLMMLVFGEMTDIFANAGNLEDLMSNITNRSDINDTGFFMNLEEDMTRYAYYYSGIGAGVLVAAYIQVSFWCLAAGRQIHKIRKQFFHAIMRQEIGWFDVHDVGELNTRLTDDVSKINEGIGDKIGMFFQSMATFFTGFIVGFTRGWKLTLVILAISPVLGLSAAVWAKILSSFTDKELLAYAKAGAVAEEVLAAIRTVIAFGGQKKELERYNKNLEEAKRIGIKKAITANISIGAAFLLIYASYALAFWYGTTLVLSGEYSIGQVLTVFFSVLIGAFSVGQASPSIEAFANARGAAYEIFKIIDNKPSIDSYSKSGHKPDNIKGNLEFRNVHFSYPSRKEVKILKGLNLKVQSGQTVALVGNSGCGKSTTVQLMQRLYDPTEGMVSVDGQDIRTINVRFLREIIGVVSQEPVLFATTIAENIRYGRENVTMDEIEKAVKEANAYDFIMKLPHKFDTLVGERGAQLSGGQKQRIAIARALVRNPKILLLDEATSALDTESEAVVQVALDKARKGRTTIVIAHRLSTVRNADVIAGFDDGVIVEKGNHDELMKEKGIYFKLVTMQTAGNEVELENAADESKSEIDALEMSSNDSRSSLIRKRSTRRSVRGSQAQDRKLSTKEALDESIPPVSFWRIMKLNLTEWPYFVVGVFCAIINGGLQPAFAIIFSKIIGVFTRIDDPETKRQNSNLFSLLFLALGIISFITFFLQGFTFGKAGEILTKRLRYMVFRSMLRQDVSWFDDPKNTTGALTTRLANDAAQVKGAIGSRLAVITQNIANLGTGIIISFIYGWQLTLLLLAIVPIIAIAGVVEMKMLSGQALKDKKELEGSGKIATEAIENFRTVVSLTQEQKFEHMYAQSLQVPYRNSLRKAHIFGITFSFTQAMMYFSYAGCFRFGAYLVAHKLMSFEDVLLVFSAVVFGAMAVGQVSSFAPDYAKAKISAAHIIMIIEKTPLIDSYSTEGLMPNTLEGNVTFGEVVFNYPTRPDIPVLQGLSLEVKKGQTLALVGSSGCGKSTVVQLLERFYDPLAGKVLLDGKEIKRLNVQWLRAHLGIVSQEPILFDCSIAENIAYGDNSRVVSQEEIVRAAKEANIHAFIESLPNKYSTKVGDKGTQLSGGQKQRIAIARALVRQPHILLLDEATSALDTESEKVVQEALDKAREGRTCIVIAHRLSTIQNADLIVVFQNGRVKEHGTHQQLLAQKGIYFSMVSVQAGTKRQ
- METHOD_DESCRIPTION: Inhibition of ABCB1 in human SW620/AD300 cells assessed as potentiation of paclitaxel-induced cytotoxicity by measuring fold reduction in paclitaxel IC50 at 2 uM after 72 hrs by MTT assay relative to paclitaxel alone
- Format: cell-based
EXPERIMENTAL_READOUT: fold change (FC)

Some entries whose results are on file:
{"STRUCTURE_NOTATION": "COc1cc(-c2nc(SCC(=O)NC(=O)Nc3ccccn3)nc(Nc3ccccc3Cl)c2C#N)cc(OC)c1OC", "fold change (FC)": 38.05}
{"STRUCTURE_NOTATION": "Cc1cccc(Nc2nc(SCC(=O)NC(=O)Nc3ccccn3)nc(-c3ccc(C(C)C)cc3)c2C#N)c1", "fold change (FC)": 2.62}
{"STRUCTURE_NOTATION": "Cc1ccc(Nc2nc(SCc3cn(Cc4ccccc4Cl)nn3)nc(-c3ccc(C)cc3)c2C#N)cc1", "fold change (FC)": 21.69}
{"STRUCTURE_NOTATION": "COc1cc(-c2nc(SCc3cn(Cc4ccccc4Cl)nn3)nc(Nc3ccc(C)cc3)c2C#N)cc(OC)c1OC", "fold change (FC)": 27.54}
{"STRUCTURE_NOTATION": "COc1cc(-c2nc(SCc3cn(CC(=O)NC(=O)Nc4ccccn4)nn3)nc(Nc3cccc(Cl)c3)c2C#N)cc(OC)c1OC", "fold change (FC)": 1.37}

Now look at this one.
q: What does the record list as fold change (FC) for CC(C)c1ccc(Nc2nc(SCc3cn(CC(=O)NC(=O)Nc4ccccn4)nn3)nc(-c3ccc(Br)cc3)c2C#N)cc1 ?
a: 1.7

---

- METHOD_DESCRIPTION: Cytotoxicity against human SW620 cells assessed as survival at 2 uM after 72 hrs by MTT assay relative to control
- Type: cell-based, SW-620
- CONDITION_PARAMETERS: read-out: Survival
Entries annotated with measured viability at 72 h, 2 µM

Some entries whose results are on file:
{"STRUCTURE_NOTATION": "Cc1ccc(Nc2nc(SCc3cn(CC(=O)NC(=O)Nc4ccccn4)nn3)nc(-c3ccc(Br)cc3)c2C#N)cc1", "EXPERIMENTAL_READOUT": "viability at 72 h, 2 µM", "MEAS_VALUE": "> 90%"}
{"STRUCTURE_NOTATION": "Cc1ccc(Nc2nc(SCC(=O)NC(=O)Nc3ccccn3)nc(-c3ccc(C(C)C)cc3)c2C#N)cc1", "EXPERIMENTAL_READOUT": "viability at 72 h, 2 µM", "MEAS_VALUE": "> 90%"}

Now look at this one.
q: What does the record list as viability at 72 h, 2 µM for N#Cc1c(Nc2ccc(Cl)cc2)nc(SCC(=O)NC(=O)Nc2ccccn2)nc1-c1ccc(Cl)cc1 ?
a: > 90%
